Value source: PubChem BioAssay AID1919016

System: NCI-H196 complex spheroid growth, percent test/control
Test: Anticancer human tumor NCI-H196 cell line growth inhibition [AhR];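 further: seven days of drug exposure starting three days after plating; 100% = DMSO vehicle control wells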
Details: second compound 0.316 µM; first compound 0.1 µM; hits give low values
Excerpt: Multicellular complex tumor spheroid response to aryl hydrocarbon receptor antagonists in combination with a variety of drugs and investigational agents in selected tumor cell lines […] Compounds. […] If the clinical Cmax for an agent had not been determined, the highest concentration tested was 10 microM (Table 1). […]
What viability, T/C was measured for each of the following?
One number for each entry, in %.

Sample answers from the record:
{"COMPOUND": "COc1cc(Nc2ncc3c(n2)-c2ccc(Cl)cc2C(c2c(F)cccc2OC)=NC3)ccc1C(=O)O + CC(CO)NC(=O)c1cc(-c2ccc(Cl)cc2)nn(-c2cnn(C)c2)c1=O", "ASSAY_ENDPOINT": "viability, T/C", "UNIT_DESCRIPTOR": "%", "RESULT_NUMBER": 106}
{"COMPOUND": "Nc1ccccc1NC(=O)c1ccc(CNC(=O)OCc2cccnc2)cc1 + CC(CO)NC(=O)c1cc(-c2ccc(Cl)cc2)nn(-c2cnn(C)c2)c1=O", "ASSAY_ENDPOINT": "viability, T/C", "UNIT_DESCRIPTOR": "%", "RESULT_NUMBER": 81.5}
{"COMPOUND": "O=C(c1cc(Cc2n[nH]c(=O)c3ccccc23)ccc1F)N1CCN(C(=O)C2CC2)CC1 + Cc1cncc(-c2nc(NCCc3c[nH]c4ccccc34)c3ncn(C(C)C)c3n2)c1", "ASSAY_ENDPOINT": "viability, T/C", "UNIT_DESCRIPTOR": "%", "RESULT_NUMBER": 101}
{"COMPOUND": "CC(C)c1c(-c2ccccc2)nc2c(C#N)c[nH]n2c1=O + Cc1cncc(-c2nc(NCCc3c[nH]c4ccccc34)c3ncn(C(C)C)c3n2)c1", "ASSAY_ENDPOINT": "viability, T/C", "UNIT_DESCRIPTOR": "%", "RESULT_NUMBER": 120}

Kindly give each listed record's viability, T/C.
1. CC(C)c1c(-c2ccccc2)nc2c(C#N)c[nH]n2c1=O + Cc1ccccc1N=Nc1ccc(NC(=O)c2ccnn2C)c(C)c1
2. COc1cc(C2c3cc4c(cc3C(OC3OC5COC(C)OC5C(O)C3O)C3COC(=O)C23)OCO4)cc(OC)c1O (stereo not drawn) + Cc1cncc(-c2nc(NCCc3c[nH]c4ccccc34)c3ncn(C(C)C)c3n2)c1
3. O=C(C=Cc1cccc(S(=O)(=O)Nc2ccccc2)c1)NO + Cc1cncc(-c2nc(NCCc3c[nH]c4ccccc34)c3ncn(C(C)C)c3n2)c1
4. CC1COCCN1c1cc(C2(S(C)(=N)=O)CC2)nc(-c2ccnc3[nH]ccc23)n1 (stereo not drawn) + Cc1cncc(-c2nc(NCCc3c[nH]c4ccccc34)c3ncn(C(C)C)c3n2)c1
5. COc1ccc([C@@H](O)c2cc(-c3ncnc4cc(N5CCOCC5)ccc34)c(F)cc2Cl)nn1 + Cc1ccccc1N=Nc1ccc(NC(=O)c2ccnn2C)c(C)c1
6. NS(=O)(=O)OCC1CC(n2ccc3c(NC4CCc5ccccc54)ncnc32)CC1O (stereo not drawn) + CC(CO)NC(=O)c1cc(-c2ccc(Cl)cc2)nn(-c2cnn(C)c2)c1=O
7. COc1cc(C2c3cc4c(cc3C(OC3OC5COC(C)OC5C(O)C3O)C3COC(=O)C23)OCO4)cc(OC)c1O (stereo not drawn) + Cc1ccccc1N=Nc1ccc(NC(=O)c2ccnn2C)c(C)c1
8. CC1COCCN1c1cc(C2(S(C)(=N)=O)CC2)nc(-c2ccnc3[nH]ccc23)n1 (stereo not drawn) + CC(CO)NC(=O)c1cc(-c2ccc(Cl)cc2)nn(-c2cnn(C)c2)c1=O

**A:**
[99.4, 109, 103, 101, 102, 85.2, 95, 110]

Documented viability, T/C of CC(C)c1c(-c2ccccc2)nc2c(C#N)c[nH]n2c1=O + CC(CO)NC(=O)c1cc(-c2ccc(Cl)cc2)nn(-c2cnn(C)c2)c1=O : 128
